- Tested on: CAKI-1 renal
- run.description: NCI-60 one-dose screen, 48 h (100 = growth as untreated, 0 = no growth, -100 = all killed)
- condition.set: 10 µM
The panel holds about 83,000 compounds, 20% with a hit somewhere; the sample as a whole holds those more often. Active and inactive are the calls of the source. The calls were made as follows: active = growth percent below 10; inactive = the rest.
So I've got a bunch of compounds here, and I need their growth values.

A selection of reference data follows.
{"compound": "C=CCOc1ccc2c(c1)CC=C1[C@@H]2CC[C@]2(C)C(=O)/C(=N/O)C[C@@H]12", "growth": "50.4% (inactive)"}
{"compound": "COc1cc(-c2cc(-c3ccc(C)cc3)nc3nc(N)[nH]c(=O)c23)ccc1Oc1ccnc2cc(Cl)ccc12", "growth": "83.2% (inactive)"}
{"compound": "N#Cc1c2c([nH]c(=O)c1C(N)=O)CCCCC2", "growth": "99.3% (inactive)"}
{"compound": "CCOc1nc(-c2ccccc2)cc2c(O)c(C(=O)N/N=C/c3ccc(OC)cc3)[nH]c(=O)c12", "growth": "92.5% (inactive)"}
{"compound": "COc1cc(C2=Nc3c/c(=C\\c4c(O)[nH]c5ccc(Cl)cc45)ccc3=N2)cc(OC)c1OC", "growth": "50.4% (inactive)"}

For every record below, what is its growth?
1. Cc1c(C(=O)N[C@H](CO)Cc2ccccc2)[nH]c2ccc(Cl)cc2c1=O
2. O=C(Cn1ccc(=O)[nH]c1=O)c1ccc([N+](=O)[O-])o1
3. COc1ccc(-c2nnc(SCC(=O)c3ccccc3)o2)cc1

["94.8% (inactive)", "105% (inactive)", "94.7% (inactive)"]

----------
- Test system: SR leukemia
- run.description: NCI-60 one-dose screen, 48 h (100 = growth as untreated, 0 = no growth, -100 = all killed)
- condition.set: 10 µM
This is part of a sample that, as a whole, favours compounds with a hit. Of some 83,000 tested, about 20% had one in any assay.
measured.parameter: growth (%)
One number for each entry, in %.

A selection of reference data follows.
{"compound": "Clc1cc(Cl)c(Cl)c(-c2nc(-c3cccnc3)cs2)c1", "target.of.assay": "SR leukemia", "reported.measurement": 9.83}
{"compound": "COc1cc(-c2nc(-c3nnc(-c4cccnc4)o3)c3ccccn23)cc(OC)c1OC", "target.of.assay": "SR leukemia", "reported.measurement": 104}
{"compound": "Cc1ccc2nc3[nH]c(=O)[nH]c(=O)c3c(N)c2c1", "target.of.assay": "SR leukemia", "reported.measurement": 95.6}

For every record below, what is its growth?
1. CC(=O)Nc1nc(C)c(C(=O)NNC=O)s1
2. CC(C)C(C)C(N)C(=O)O (stereo not given)
3. COc1cccc(C(=O)N(c2ccc(F)c(F)c2)C(C(=O)NC(C)(C)C)c2cc3c(C)cc(C)cc3nc2Cl)c1 (stereo not given)
4. COc1cc(OC)cc(-c2ccc(-c3ccc(C(=N)N)cn3)o2)c1
5. CCCCCCCCCCCCc1ccc(C(=O)/C=C/C(=O)O)cc1
6. CCN(CC)CCCOC(=O)Nc1ccccc1Cl
7. COc1ccc(-c2nc(SCC(=O)c3ccc(Br)cc3)[nH]c(=O)c2C#N)cc1

1: 105; 2: 93.7; 3: 67.6; 4: 0.771; 5: -28.1; 6: 101; 7: 94.5

----------
- System: ACHN renal
- run.description: NCI-60 one-dose screen, 48 h (100 = growth as untreated, 0 = no growth, -100 = all killed)
- condition.set: 10 µM
Compounds without any hit were thinned out: in the full panel of roughly 83,000, 20% have a hit.
So I've got a bunch of compounds here, and I need their growth values.
One number for each entry, in %.

For every record below, what is its growth?
1. COc1ccc(COC(=O)CC(C)C)cc1
2. COc1nc2c(c(=O)[nH]1)C(c1ccc(Oc3ccnc4cc(Cl)ccc34)c(OC)c1)C=C(c1cc(OC)c(OC)c(OC)c1)N2 (configuration not stated)
3. COc1cc(-c2nc3ccccc3[nH]2)ccc1OCC(=O)N=Nc1c(O)[nH]c2ccccc12
4. CNC(=S)Sc1ccc([N+](=O)[O-])cc1[N+](=O)[O-]

1. 105
2. 102
3. 101
4. 37.3

----------
- Test system: T-47D breast
- run.description: NCI-60 one-dose screen, 48 h
- condition.set: 10 µM
About 83,000 compounds went through this panel and 20% of them were active in at least one assay; those are over-represented in the sample as a whole. Active and inactive are the calls of the source. Rule for the calls: active = growth percent below 10; inactive = the rest.
Your response should consist of one outcome taken from active, inactive

{"compound": "CCC(O)c1ccc(Br)cc1NC(=O)c1cccc(Cl)c1 (stereo not drawn)", "assigned.class": "inactive"}
{"compound": "CC1(C)Cc2c(cn(Cc3ccccc3)c2-c2ccccc2)-c2oncc21", "assigned.class": "inactive"}
{"compound": "Clc1cc(Cl)c(Cl)c(-c2nc(-c3cccnc3)cs2)c1", "assigned.class": "active"}

Please share the test call associated with `CNC(=S)Sc1ccc([N+](=O)[O-])cc1[N+](=O)[O-]` .
inactive

Please share the test call associated with `Cc1ccc(S(=O)(=O)Nc2cccc3[nH]c(C(F)(F)F)nc23)cc1` .
inactive

Please share the test call associated with `COc1cc(-c2nc3ccc(C)cc3[nH]2)ccc1OCC(=O)N=Nc1c(O)[nH]c2ccccc12` .
active

Please share the test call associated with NC1CCC(Nc2nc(NCc3cc(Cl)ccc3O)c3ncn(C4CCCC4)c3n2)CC1 (stereo not drawn) .
active

Please share the test call associated with `Cc1cc(C(C)(C)CC(C)(C)C)ccc1OCCOCC[N+](C)(C)Cc1ccccc1` .
active

----------
- System: 786-0 renal
- run.description: NCI-60 one-dose screen, 48 h
- condition.set: 10 µM
The panel holds about 83,000 compounds, 20% with a hit somewhere; the sample as a whole holds those more often. Active and inactive are the calls of the source. The calls were made as follows: active = growth percent below 10; inactive = the rest.
Your response should consist of one outcome taken from true for active, false for inactive

{"compound": "CC(C)C(C)C(N)C(=O)O (stereo not given)", "target.of.assay": "786-0 renal", "assigned.class": "false"}
{"compound": "C#C[C@]1(O)CC[C@H]2[C@@H]3CC[C@H]4CC(F)(F)CC[C@]4(C)[C@H]3CC[C@@]21C", "target.of.assay": "786-0 renal", "assigned.class": "false"}
{"compound": "COc1ccc(/C=C2\\SC(=S)N(CCCN3CCOCC3)C2=O)c(OC)c1", "target.of.assay": "786-0 renal", "assigned.class": "false"}

Please share the test call associated with `COc1ccc(C(=O)c2sc3nc(-c4cccs4)ccc3c2N)cc1OC` .
false

Please share the test call associated with `COc1cccc(-c2nnc(COc3ccc(-c4nc5ccccc5[nH]4)cc3OC)o2)c1` .
false

Please share the test call associated with `O=C1/C(=C/c2ccc(O)cc2O)N=C2SCCCN12` .
false

Please share the test call associated with `O=C1CC[C@@H](C(=O)N[C@H]2CSSC[C@@H](C(=O)N/C=C/c3ccc(O)cc3)NC(=O)[C@H](Cc3ccccc3)NC(=O)[C@@H]3CCCN3C(=O)[C@@H]3CCCN3C2=O)N1` .
false

Please share the test call associated with `O=C(Nc1cccc([N+](=O)[O-])c1)NN1CCCCCC1` .
false

Please share the test call associated with `Cc1cc(C#Cc2ccccc2)ccc1-n1c(/C=C/c2cc(O)ccc2O)nc2ccccc2c1=O` .
false

Please share the test call associated with `C#Cc1ccc(-n2c(/C=C/c3cc(OC)c(OC)c(OC)c3)nc3ncccc3c2=O)cc1` .
false

Please share the test call associated with `COc1ccc(-c2nnc(COc3ccc(NC(=O)Nc4cccc(C(F)(F)F)c4)cc3F)o2)cc1` .
false

Please share the test call associated with `COc1cc(-c2nc3ccc(C)cc3[nH]2)ccc1OCc1nnc(-c2ccc(CC(C)C)cc2)o1` .
false

Please share the test call associated with `Cn1c(N)c(N=Cc2ccccc2)c(=O)n(C)c1=O` .
false

Please share the test call associated with Cc1cc(C)c(C(=O)OC(C)CNC2CCCCC2)c(C)c1 (stereo not given) .
false

Please share the test call associated with `COC(=O)[C@]12CC[C@@H](C)[C@H](C)[C@@H]1C1=CC[C@@H]3[C@@]4(C)CC(=O)[C@H](O)[C@@]5(C)COC(=C45)C[C@@]3(C)[C@]1(C)CC2` .
true

----------
- Test system: SW-620 colon
- run.description: NCI-60 one-dose screen, 48 h (100 = growth as untreated, 0 = no growth, -100 = all killed)
- condition.set: 10 µM
About 83,000 compounds went through this panel and 20% of them were active in at least one assay; those are over-represented in the sample as a whole.
So I've got a bunch of compounds here, and I need their growth values.
Answers are plain numbers, in %.

A selection of reference data follows.
{"compound": "COc1ccccc1NC1=C(N2CCCCC2)C(=O)c2ccccc2C1=O", "target.of.assay": "SW-620 colon", "growth / %": 93.4}
{"compound": "Cc1ccc(C)c(S(=O)(=O)NC2c3ccccc3Oc3ccccc32)c1", "target.of.assay": "SW-620 colon", "growth / %": 88.8}
{"compound": "C=C[C@]1(C)C=C2C(=O)[C@@]3(O)OC(=O)[C@@]4(CCCC(C)(C)[C@H]34)[C@@]2(O)CC1", "target.of.assay": "SW-620 colon", "growth / %": -42}

For every record below, what is its growth?
1. Cc1nc2scc(-c3ccc(Cl)cc3)n2c(=O)c1CCN1CCOCC1
2. COc1c(-c2c3sc(=O)[nH]c3nc3c2c(=O)[nH]n3C(C)C)cc2c(c1OC)OCO2
3. CCCCn1c(=O)[nH]c2c(c1=O)C(c1ccc(Cl)cc1)c1c([nH]c(=O)n(CCCC)c1=O)N2
4. O=C1/C(=C/c2ccc([N+](=O)[O-])s2)Oc2ccc(Cl)cc21
5. O=C1/C(=C/c2ccc(O)cc2O)N=C2SCCCN12
6. CCOC(=O)c1c(C(F)(F)F)n([O-])c2ccc(OC)cc2[n+]1=O
7. CCOC(=O)c1c(C)n(-c2ccc(Cl)cc2)c2ccc(OC(=O)/C=C/c3ccccc3)cc12

1: 105; 2: 108; 3: 101; 4: -64.4; 5: 107; 6: 30.2; 7: 67

For every record below, what is its growth?
1. C=CCOc1ccc2c(c1)CC=C1[C@@H]2CC[C@]2(C)C(=O)/C(=N/O)C[C@@H]12
2. COc1ccc(C(=O)/C=C/c2cc(-c3ccc(OC)c(OC)c3)n[nH]2)cc1OC
3. O=C(Nc1cccc([N+](=O)[O-])c1)NN1CCCCCC1
4. CC(C)c1ncc(CO)n1Cc1c(Cl)cccc1Cl
5. CC1(C)CNC(=O)N1
6. Clc1cc(Cl)c(Cl)c(-c2nc(-c3cccnc3)cs2)c1
7. Cc1ccc(NC(=O)/C=N/O)cc1C
8. Cc1ccc([P+](Cc2ccc([N+](=O)[O-])cc2)(c2ccc(C)cc2)c2ccc(C)cc2)cc1

1. 79.6
2. -48.8
3. 95.9
4. 100
5. 102
6. 46.2
7. 100
8. 45.2
